Molecular target: Tyrosine-protein kinase ABL1 (Homo sapiens)
Assay: Inhibition of ABL1 (unknown origin) at 500 nM
readout.label: inhibition
I'd appreciate it if you wrote the number followed by its unit.

| smiles.code | subject.of.test | inhibition |
| --- | --- | --- |
| COc1cc(CO)ccc1-c1cc2c(Nc3ccc(F)c(Cl)c3)ncnc2s1 | Tyrosine-protein kinase ABL1 (Homo sapiens) | 19% |
| C[C@@H](Nc1ncnc2sc(-c3ccc(C(=O)NCCN(C)C)cc3)cc12)c1ccccc1 | Tyrosine-protein kinase ABL1 (Homo sapiens) | 1% |
| C[C@@H](Nc1ncnc2sc(-c3ccccc3C(N)=O)cc12)c1ccccc1 | Tyrosine-protein kinase ABL1 (Homo sapiens) | -5% |
| CN(C)CCNC(=O)c1ccc(-c2cc3c(N[C@H](CO)c4ccccc4)ncnc3s2)cc1 | Tyrosine-protein kinase ABL1 (Homo sapiens) | 27% |

We next turn to a different molecule, shown below.
Recorded inhibition (molecule "COc1cc(C(N)=O)ccc1-c1cc2c(N[C@H](CO)c3ccccc3)ncnc2s1" ): 4%

###

Biological target: Hepatocyte growth factor receptor (Homo sapiens)
Test: Inhibition of MET (unknown origin) at 500 nM
The entries below are paired with their reported inhibition.
Use % as the unit, but write only the number.

Solved entries (count: 4):
| molecule | u | inhibition |
| --- | --- | --- |
| COc1cc(CO)ccc1-c1cc2c(N[C@H](CO)c3ccccc3)ncnc2s1 | % | 3 |
| COc1cc(C(N)=O)ccc1-c1cc2c(N[C@H](CO)c3ccccc3)ncnc2s1 | % | -5 |
| CN(C)CCNC(=O)c1ccc(-c2cc3c(N[C@H](CO)c4ccccc4)ncnc3s2)cc1 | % | -3 |
| COc1cc(CO)ccc1-c1cc2c(Nc3ccc(F)c(Cl)c3)ncnc2s1 | % | -5 |

Recorded inhibition (molecule C#Cc1cccc(Nc2ncnc3cc(OCCOC)c(OCCOC)cc23)c1 [ERLOTINIB] ): 11

Recorded inhibition (molecule "COc1cc(CO)ccc1-c1cc2c(N[C@H](C)c3ccccc3)ncnc2s1" ): 15

Recorded inhibition (molecule "COc1ccc(C(=O)NCCN(C)C)cc1-c1cc2c(N[C@H](C)c3ccccc3)ncnc2s1" ): -9

Recorded inhibition (molecule "COc1cc(CO)ccc1-c1cc2c(Nc3ccccc3)ncnc2s1" ): 7

###

Biological target: Protein kinase C theta type (Homo sapiens) (UniProt Q04759)
Sequence (Q04759 whole entry, looked up): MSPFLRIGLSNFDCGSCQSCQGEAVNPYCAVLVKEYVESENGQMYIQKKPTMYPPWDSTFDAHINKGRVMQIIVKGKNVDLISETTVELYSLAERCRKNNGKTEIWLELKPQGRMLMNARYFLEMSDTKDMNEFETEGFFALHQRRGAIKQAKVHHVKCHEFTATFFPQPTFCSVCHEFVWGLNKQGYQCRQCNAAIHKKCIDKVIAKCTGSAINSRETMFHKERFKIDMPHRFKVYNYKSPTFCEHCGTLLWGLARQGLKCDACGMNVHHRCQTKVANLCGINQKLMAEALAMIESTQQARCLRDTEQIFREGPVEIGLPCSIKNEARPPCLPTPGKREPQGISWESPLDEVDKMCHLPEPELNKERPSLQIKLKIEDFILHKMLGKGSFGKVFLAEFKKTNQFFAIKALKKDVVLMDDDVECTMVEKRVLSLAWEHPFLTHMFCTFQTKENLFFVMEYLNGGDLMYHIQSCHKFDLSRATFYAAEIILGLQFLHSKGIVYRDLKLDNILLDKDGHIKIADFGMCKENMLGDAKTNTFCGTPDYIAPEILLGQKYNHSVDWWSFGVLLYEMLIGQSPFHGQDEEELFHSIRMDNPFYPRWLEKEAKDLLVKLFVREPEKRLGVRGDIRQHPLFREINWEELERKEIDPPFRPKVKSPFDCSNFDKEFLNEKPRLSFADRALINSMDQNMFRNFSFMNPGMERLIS
Experiment: Inhibition of PRKCQ (unknown origin) at 500 nM
readout.label: inhibition (%)
Use % as the unit, but write only the number.

Recorded inhibition (compound "COc1cc(CO)ccc1-c1cc2c(Nc3ccc(F)c(Cl)c3)ncnc2s1" ): 3

Recorded inhibition (compound "COc1cc(CO)ccc1-c1cc2c(N[C@H](C)c3ccccc3)ncnc2s1" ): 1

Recorded inhibition (compound "C#Cc1cccc(Nc2ncnc3sc(-c4ccc(CO)cc4OC)cc23)c1" ): -5

Recorded inhibition (compound "C#Cc1cccc(Nc2ncnc3cc(OCCOC)c(OCCOC)cc23)c1" ): -4

Recorded inhibition (compound "COc1cc(CO)ccc1-c1cc2c(Nc3ccccc3)ncnc2s1" ): -10

###

The entries below are paired with their reported inhibition.
Target: Serine/threonine-protein kinase PLK1 (Homo sapiens)
Assay: Inhibition of PLK1 (unknown origin) at 500 nM
Use % as the unit, but write only the number.

Solved entries (count: 4):
| smiles.code | inhibition / % |
| --- | --- |
| COc1cc(CO)ccc1-c1cc2c(N[C@H](C)c3ccccc3)ncnc2s1 | 1 |
| COc1ccc(C(=O)NCCN(C)C)cc1-c1cc2c(N[C@H](C)c3ccccc3)ncnc2s1 | 2 |
| COc1cc(C(N)=O)ccc1-c1cc2c(N[C@H](CO)c3ccccc3)ncnc2s1 | -8 |
| COc1cc(CO)ccc1-c1cc2c(N[C@H](CO)c3ccccc3)ncnc2s1 | 1 |

We next turn to a different compound, shown below.
Recorded inhibition (compound "COc1cc(CO)ccc1-c1cc2c(Nc3ccc(F)c(Cl)c3)ncnc2s1" ): 6
